Molecular target: MERTK (UniProt Q12866)
Sequence (Q12866 whole entry, looked up): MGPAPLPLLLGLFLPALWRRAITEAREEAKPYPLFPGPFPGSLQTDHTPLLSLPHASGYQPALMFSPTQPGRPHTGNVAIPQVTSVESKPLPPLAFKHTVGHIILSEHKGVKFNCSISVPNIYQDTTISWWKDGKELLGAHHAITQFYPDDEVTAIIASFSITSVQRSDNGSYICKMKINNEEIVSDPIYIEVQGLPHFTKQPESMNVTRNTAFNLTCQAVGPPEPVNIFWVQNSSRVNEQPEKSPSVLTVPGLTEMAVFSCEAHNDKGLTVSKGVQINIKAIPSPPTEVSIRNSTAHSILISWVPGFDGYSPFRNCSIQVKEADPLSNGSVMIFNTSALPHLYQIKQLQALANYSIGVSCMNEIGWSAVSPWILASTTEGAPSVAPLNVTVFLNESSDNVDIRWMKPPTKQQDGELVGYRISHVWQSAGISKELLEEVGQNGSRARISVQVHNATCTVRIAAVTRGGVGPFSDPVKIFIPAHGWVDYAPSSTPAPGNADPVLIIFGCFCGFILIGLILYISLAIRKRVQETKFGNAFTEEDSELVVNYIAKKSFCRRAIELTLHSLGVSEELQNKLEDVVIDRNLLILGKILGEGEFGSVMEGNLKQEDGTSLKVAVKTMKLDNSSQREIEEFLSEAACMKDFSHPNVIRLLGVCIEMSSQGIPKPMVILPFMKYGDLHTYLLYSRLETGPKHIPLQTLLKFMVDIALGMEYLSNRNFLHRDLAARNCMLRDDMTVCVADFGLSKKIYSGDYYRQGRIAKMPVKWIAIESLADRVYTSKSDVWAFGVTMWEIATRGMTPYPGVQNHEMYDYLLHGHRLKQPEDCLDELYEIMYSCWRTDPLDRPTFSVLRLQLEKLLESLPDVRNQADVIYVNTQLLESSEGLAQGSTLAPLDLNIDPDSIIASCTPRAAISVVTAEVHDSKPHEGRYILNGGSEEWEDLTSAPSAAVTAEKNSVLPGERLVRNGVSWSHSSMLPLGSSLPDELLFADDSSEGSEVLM
Test: phosphorylation enrichment, bacterial display (enrichment ratio); higher = better substrate or ligand; peptides without Tyr show the background;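 note: 11-residue human phosphosite peptides and single-mutation variants displayed on the E. coli surface, counted by deep sequencing, each peptide's frequency after selection divided by its frequency in the unselected input library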;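 note: frequency after pTyr selection over input frequency; kinase dosed for 20-30% of maximal phosphorylation in three min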
I'd appreciate it if you could supply phosphorylation enrichment values for the items below.
One number for each entry.

In the examples that follow, each entry is paired with its recorded phosphorylation enrichment.
* AAPAAHDAADT [GAMT_Y27_Y27H] | 0.45
* PRPAGYPSTVS [CACNA1C_Y1832] | 0.363
* TESNNYIYKTL [FAM83B_Y637] | 0.535
* NCLREYVAGRF [CRB1_Y711] | 0.461
* GNEEAYGRSHI [FAM171B_Y522] | 0.455
* RIFDFYSARKA [STOX1_Y858_YF] | 0.644
* WCSNDHLGMSR [ALAS2_Y199_Y199H] | 0.418
* SKAFAYVHFDS [PABPC5_Y149_G146A_YF] | 0.443
* PVGVLYEVKVF [PTS_Y128_K129E_YF] | 1.16
* GITTGYLVLKE [DNMT3B_Y588_A585T] | 0.334

Provide the reported phosphorylation enrichment of each entry below, same order.
1. NCFKYYMSDDI [ATRX_Y204]
2. RGMVMYTSKDR [ZG16B_Y136]
3. IEENGYNTFAS [FGF10_Y161_YF]
4. KNSFKYYMSDD [ATRX_Y203_C200S]
5. FKGKNYKPLDL [RPL35_Y78_K77N_YF]
6. ITNLLYHVVSW [GBA_Y412_G416S]

[A]
[0.562, 0.528, 0.506, 0.479, 0.359, 7.13]

Please state phosphorylation enrichment for every sequence in the list that follows.
1. YISLIYTNYEA [GSTP1_Y109]
2. KNNSIYVVANI [VNN1_Y134]
3. AAVDTVCRHNF [HLA-DRB1_Y107_Y107V_YF]
4. ALWYIYSHTRS [ENG_Y614]
5. ILTFKYLQKPM [KIT_Y547_YF]
6. EATKVYLDDPT [G6PD_Y322_G321V]

[A]
1: 3.44; 2: 0.885; 3: 0.488; 4: 0.418; 5: 0.548; 6: 0.385

Can you give me phosphorylation enrichment for all of these, one by one?
1. LTSKPYAFTAW [NDUFS1_Y236_R241W]
2. SSENPCATIKD [MEGF10_Y1030_Y1030C]
3. LLIVEYAKYGS [RET_Y806]
4. EVESPYEVRDF [GIGYF2_Y1168_H1171R_YF]
5. VAFLYYKSIGP [ADGRL4_Y302_V300L]
6. RAIGHYSATSK [FAM120A_Y328_Y327H]
7. RLAKRYLIWEC [SCN5A_Y694_Q692K]

[A]
1.12
0.438
0.75
0.809
0.389
0.757
0.503
